Data credit: patent US8211901B2

Test system: total HDAC enzyme (HeLa extract)
test-name: In vitro inhibition of total HDAC enzyme activity (HDAC Fluorimetric Assay/Drug Discovery Kit)
Type: biochemical
Would you please tag the item True when its % inhibition of total HDAC enzyme activity at 30 μM is 20% or above, and False when it is below?

Asked: Has COc1cc2nccc(Oc3ccc4c(C(=O)Nc5ccc(F)cc5N)cccc4c3)c2cc1OC [Example 36] a recorded % inhibition of total HDAC enzyme activity at 30 μM greater than or equal to 20%?
Given back: False

Asked: Has COc1ccc2c(Oc3ccc4c(C(=O)Nc5ccc(F)cc5N)cccc4c3)ccnc2c1 [Example 32] a recorded % inhibition of total HDAC enzyme activity at 30 μM greater than or equal to 20%?
Given back: True

----------
Test system: Class I HDAC
test-name: P21 reporter gene assay in HeLa cells
Assay type: cell-based
condition-info: 24 hours
Description: HDAC subtype selectivity inhibition assay of tested compounds was carried out by several reporter gene assays experiments. Briefly, HeLa cells were seeded in 96-well plates the day before transfection to give a confluence of 50-80%. Cells were transfected with one of reporter gene plasmid containing a promoter sequence or response element upstream of a luciferase gene construct using FuGene6 transfection reagent according to the manufacturer's instruction (Roche). […]
Would you please tag the item Fulfilled when its Class I HDAC (P21 reporter assay) Fold Induction at 10 μM is 2 Fold or above, and Not fulfilled when it is below?

// known answers, use as guide
Nc1ccccc1NC(=O)c1ccc(CNC(=O)c2cccc3cc(Oc4ccnc5cc(Cl)ccc45)ccc23)cc1 [Example 43]; Fulfilled
COc1cc2ncnc(Oc3ccc4c(C(=O)NCc5ccc(C(=O)Nc6ccccc6N)cc5)cccc4c3)c2cc1OC [Example 23]; Fulfilled
COc1ccc2c(Oc3ccc4c(C(=O)Nc5ccccc5N)cccc4c3)ccnc2c1 [Example 31]; Not fulfilled
COc1cc2nccc(Oc3ccc4c(C(=O)Nc5ccccc5N)cccc4c3)c2cc1OC [Example 35]; Not fulfilled
Nc1ccccc1NC(=O)c1cccc2cc(Oc3ccnc4ccccc34)ccc12 [Example 39]; Not fulfilled
COc1cc2nccc(Oc3ccc4c(C(=O)Nc5ccc(F)cc5N)cccc4c3)c2cc1OC [Example 36]; Not fulfilled

Asked: Has COc1cc2ncnc(Oc3ccc4c(C(=O)Nc5ccc(Cl)cc5N)cccc4c3)c2cc1OC [Example 20] a recorded Class I HDAC (P21 reporter assay) Fold Induction at 10 μM greater than or equal to 2 Fold?
Given back: Not fulfilled

----------
System: Class I HDAC
test-name: P21 reporter gene assay in HeLa cells
Type: cell-based
condition-info: 24 hours
// Class I HDAC (P21 reporter assay) Fold Induction at 10 μM lookup, one value per entry
Field format: number, assumed Fold, no unit text.

COc1cc2ncnc(Oc3ccc4c(C(=O)Nc5ccc(Br)cc5N)cccc4c3)c2cc1OC; 1.1

Asked: Would you mind telling me what Class I HDAC (P21 reporter assay) Fold Induction at 10 μM value was observed for COc1cc2ncnc(Oc3ccc4c(C(=O)Nc5ccc(C)cc5N)cccc4c3)c2cc1OC ?
Given back: 1.1

Asked: Would you mind telling me what Class I HDAC (P21 reporter assay) Fold Induction at 10 μM value was observed for COc1cc2ncnc(Oc3ccc4c(C(=O)Nc5ccccc5N)cccc4c3)c2cc1OC ?
Given back: 1.3

Asked: Would you mind telling me what Class I HDAC (P21 reporter assay) Fold Induction at 10 μM value was observed for COc1cc2nccc(Oc3ccc4c(C(=O)NCc5ccc(C(=O)Nc6ccccc6N)cc5)cccc4c3)c2cc1OC ?
Given back: 3.0

Asked: Would you mind telling me what Class I HDAC (P21 reporter assay) Fold Induction at 10 μM value was observed for COc1cc2ncnc(Oc3ccc4c(C(=O)Nc5ccc(C(F)(F)F)cc5N)cccc4c3)c2cc1OC ?
Given back: 1.1

Asked: Would you mind telling me what Class I HDAC (P21 reporter assay) Fold Induction at 10 μM value was observed for Nc1ccccc1NC(=O)c1cccc2cc(Oc3ccnc4cc(Cl)ccc34)ccc12 ?
Given back: 1.1

Asked: Would you mind telling me what Class I HDAC (P21 reporter assay) Fold Induction at 10 μM value was observed for COc1ccc2c(Oc3ccc4c(C(=O)NCc5ccc(C(=O)Nc6ccccc6N)cc5)cccc4c3)ccnc2c1 ?
Given back: 2.8

Asked: Would you mind telling me what Class I HDAC (P21 reporter assay) Fold Induction at 10 μM value was observed for COc1ccc2c(Oc3ccc4c(C(=O)NCc5ccc(C(=O)Nc6ccccc6N)cn5)cccc4c3)ccnc2c1 ?
Given back: 5.0

----------
System: A549
test-name: Tumor cell proliferation (MTS), A549
Assay type: cell-based
condition-info: Homo sapiens, 72 hours, complete medium
Please respond with y when measured GI50 is strictly beneath 10 µM, and with n in all other cases.

// known answers, use as guide
COc1cc2ncnc(Oc3ccc4c(C(=O)Nc5ccccc5N)cccc4c3)c2cc1OC [Example 16]; n
Nc1cc(F)ccc1NC(=O)c1ccc(CNC(=O)/C=C/c2cccnc2)cc1 [CS055, Chidamide, reference compound]; n
COc1cc2nccc(Oc3ccc4c(C(=O)Nc5ccc(F)cc5N)cccc4c3)c2cc1OC [Example 36]; y

Asked: Given the entry COc1cc2ncnc(Oc3ccc4c(C(=O)Nc5ccc(F)cc5N)cccc4c3)c2cc1OC [Example 17] , would its reported GI50 be below 10 µM?
Given back: n

Asked: Given the entry COc1ccc2c(Oc3ccc4c(C(=O)NCc5ccc(C(=O)Nc6ccccc6N)cn5)cccc4c3)ccnc2c1 [Example 34] , would its reported GI50 be below 10 µM?
Given back: n

Asked: Given the entry COc1cc2nccc(Oc3ccc4c(C(=O)NCc5ccc(C(=O)Nc6ccccc6N)cn5)cccc4c3)c2cc1OC [Example 38] , would its reported GI50 be below 10 µM?
Given back: n

Asked: Given the entry COc1cc2ncnc(Oc3ccc4c(C(=O)NCc5ccc(C(=O)Nc6ccccc6N)cc5)cccc4c3)c2cc1OC [Example 23] , would its reported GI50 be below 10 µM?
Given back: n

Asked: Given the entry COc1ccc2c(Oc3ccc4c(C(=O)Nc5ccc(F)cc5N)cccc4c3)ccnc2c1 [Example 32] , would its reported GI50 be below 10 µM?
Given back: y

----------
// GI50 lookup, one value per entry
experimental-system: human PDGFRβ (Homo sapiens, UniProt P09619)
Construct: expressed in transfected cells
Sequence (P09619 33-1106): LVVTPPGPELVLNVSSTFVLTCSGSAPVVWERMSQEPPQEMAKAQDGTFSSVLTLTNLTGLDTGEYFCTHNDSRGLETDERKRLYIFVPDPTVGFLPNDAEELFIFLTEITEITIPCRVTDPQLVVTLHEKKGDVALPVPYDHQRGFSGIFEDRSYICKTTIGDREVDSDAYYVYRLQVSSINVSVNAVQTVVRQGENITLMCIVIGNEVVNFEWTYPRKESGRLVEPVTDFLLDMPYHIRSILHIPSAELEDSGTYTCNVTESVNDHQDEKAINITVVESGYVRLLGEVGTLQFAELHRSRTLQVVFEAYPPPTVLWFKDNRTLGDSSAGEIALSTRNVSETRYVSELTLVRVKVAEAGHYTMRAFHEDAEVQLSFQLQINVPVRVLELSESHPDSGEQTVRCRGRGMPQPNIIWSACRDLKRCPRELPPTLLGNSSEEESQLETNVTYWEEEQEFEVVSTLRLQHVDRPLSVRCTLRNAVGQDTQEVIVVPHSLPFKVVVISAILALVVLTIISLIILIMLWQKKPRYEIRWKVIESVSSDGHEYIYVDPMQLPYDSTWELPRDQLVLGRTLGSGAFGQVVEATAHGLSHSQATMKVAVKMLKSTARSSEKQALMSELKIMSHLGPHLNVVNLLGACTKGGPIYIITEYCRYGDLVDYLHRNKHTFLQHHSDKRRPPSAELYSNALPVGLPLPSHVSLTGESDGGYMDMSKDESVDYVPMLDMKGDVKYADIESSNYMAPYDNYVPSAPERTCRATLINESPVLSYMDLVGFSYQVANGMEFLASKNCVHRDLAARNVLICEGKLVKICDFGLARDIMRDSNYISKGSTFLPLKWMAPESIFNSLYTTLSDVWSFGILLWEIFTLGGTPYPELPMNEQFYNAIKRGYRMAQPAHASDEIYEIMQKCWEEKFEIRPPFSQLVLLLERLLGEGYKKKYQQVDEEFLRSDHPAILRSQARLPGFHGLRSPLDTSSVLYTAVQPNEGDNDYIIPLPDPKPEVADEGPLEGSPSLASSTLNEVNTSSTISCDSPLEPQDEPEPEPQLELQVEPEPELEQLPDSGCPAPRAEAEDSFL
test-name: PDGF dependent cell proliferation (MTS)
Type: cell-based
condition-info: PDGFRβ NIH-3T3 cells, PDGF BB 50 ng/ml, 72 hours, serum-free medium; read-out: GI50 nM (PDGF ligand-dependent cell proliferation)
Please answer using the number first and the unit second.

Worked cases, answers included:
COc1cc2nccc(Oc3ccc4c(C(=O)Nc5ccc(F)cc5N)cccc4c3)c2cc1OC [Example 36]; 3 nM
COc1cc2nccc(Oc3ccc4c(C(=O)Nc5ccccc5N)cccc4c3)c2cc1OC [Example 35]; 5 nM
COc1cc2ncnc(Oc3ccc4c(C(=O)Nc5ccc(C(F)(F)F)cc5N)cccc4c3)c2cc1OC [Example 22]; 372 nM

The record that follows has no GI50 shown yet.
Asked: Would you mind telling me what GI50 value was observed for COc1cc2ncnc(Oc3ccc4c(C(=O)Nc5ccc(C)cc5N)cccc4c3)c2cc1OC [Example 18] ?
Given back: 15 nM

----------
System: Bel-7402
test-name: Tumor cell proliferation (MTS), Bel-7402
Type: cell-based
condition-info: Homo sapiens, 72 hours, complete medium
reported-endpoint: GI50
Please answer using the number first and the unit second.

COc1ccc2c(Oc3ccc4c(C(=O)Nc5ccc(F)cc5N)cccc4c3)ccnc2c1 [Example 32]; 17.3 µM

Asked: Would you mind telling me what GI50 value was observed for COc1ccc2c(Oc3ccc4c(C(=O)NCc5ccc(C(=O)Nc6ccccc6N)cc5)cccc4c3)ccnc2c1 [Example 33] ?
Given back: 2.8 µM

Asked: Would you mind telling me what GI50 value was observed for COc1cc2nccc(Oc3ccc4c(C(=O)Nc5ccc(F)cc5N)cccc4c3)c2cc1OC [Example 36] ?
Given back: 12.1 µM

Asked: Would you mind telling me what GI50 value was observed for Nc1cc(F)ccc1NC(=O)c1ccc(CNC(=O)/C=C/c2cccnc2)cc1 [CS055, Chidamide, reference compound] ?
Given back: 18.9 µM

Asked: Would you mind telling me what GI50 value was observed for COc1cc2nccc(Oc3ccc4c(C(=O)Nc5ccccc5N)cccc4c3)c2cc1OC [Example 35] ?
Given back: 19.5 µM

----------
Test system: Class I HDAC
test-name: P21 reporter gene assay in HeLa cells
Type: cell-based
condition-info: 24 hours
// Class I HDAC (P21 reporter assay) Fold Induction at 10 μM lookup, one value per entry
Field format: number, assumed Fold, no unit text.

COc1ccc2c(Oc3ccc4c(C(=O)Nc5ccc(F)cc5N)cccc4c3)ccnc2c1 [Example 32]; 1.8

Asked: Would you mind telling me what Class I HDAC (P21 reporter assay) Fold Induction at 10 μM value was observed for COc1ccc(NC(=O)c2cccc3cc(Oc4ncnc5cc(OC)c(OC)cc45)ccc23)c(N)c1 [Example 19] ?
Given back: 1.4

Asked: Would you mind telling me what Class I HDAC (P21 reporter assay) Fold Induction at 10 μM value was observed for Cc1cccc2c(Oc3ccc4c(C(=O)Nc5ccccc5N)cccc4c3)ccnc12 [Example 40] ?
Given back: 1.3

Asked: Would you mind telling me what Class I HDAC (P21 reporter assay) Fold Induction at 10 μM value was observed for COc1cc2ncnc(Oc3ccc4c(C(=O)NCc5ccc(C(=O)Nc6ccccc6N)cn5)cccc4c3)c2cc1OC [Example 25] ?
Given back: 12.1

Asked: Would you mind telling me what Class I HDAC (P21 reporter assay) Fold Induction at 10 μM value was observed for COc1cc2nccc(Oc3ccc4c(C(=O)NCc5ccc(C(=O)Nc6ccccc6N)cn5)cccc4c3)c2cc1OC [Example 38] ?
Given back: 3.1
